# Assay system: hTLR7 (Homo sapiens, UniProt Q9NYK1)
# Sequence (Q9NYK1 27-1049): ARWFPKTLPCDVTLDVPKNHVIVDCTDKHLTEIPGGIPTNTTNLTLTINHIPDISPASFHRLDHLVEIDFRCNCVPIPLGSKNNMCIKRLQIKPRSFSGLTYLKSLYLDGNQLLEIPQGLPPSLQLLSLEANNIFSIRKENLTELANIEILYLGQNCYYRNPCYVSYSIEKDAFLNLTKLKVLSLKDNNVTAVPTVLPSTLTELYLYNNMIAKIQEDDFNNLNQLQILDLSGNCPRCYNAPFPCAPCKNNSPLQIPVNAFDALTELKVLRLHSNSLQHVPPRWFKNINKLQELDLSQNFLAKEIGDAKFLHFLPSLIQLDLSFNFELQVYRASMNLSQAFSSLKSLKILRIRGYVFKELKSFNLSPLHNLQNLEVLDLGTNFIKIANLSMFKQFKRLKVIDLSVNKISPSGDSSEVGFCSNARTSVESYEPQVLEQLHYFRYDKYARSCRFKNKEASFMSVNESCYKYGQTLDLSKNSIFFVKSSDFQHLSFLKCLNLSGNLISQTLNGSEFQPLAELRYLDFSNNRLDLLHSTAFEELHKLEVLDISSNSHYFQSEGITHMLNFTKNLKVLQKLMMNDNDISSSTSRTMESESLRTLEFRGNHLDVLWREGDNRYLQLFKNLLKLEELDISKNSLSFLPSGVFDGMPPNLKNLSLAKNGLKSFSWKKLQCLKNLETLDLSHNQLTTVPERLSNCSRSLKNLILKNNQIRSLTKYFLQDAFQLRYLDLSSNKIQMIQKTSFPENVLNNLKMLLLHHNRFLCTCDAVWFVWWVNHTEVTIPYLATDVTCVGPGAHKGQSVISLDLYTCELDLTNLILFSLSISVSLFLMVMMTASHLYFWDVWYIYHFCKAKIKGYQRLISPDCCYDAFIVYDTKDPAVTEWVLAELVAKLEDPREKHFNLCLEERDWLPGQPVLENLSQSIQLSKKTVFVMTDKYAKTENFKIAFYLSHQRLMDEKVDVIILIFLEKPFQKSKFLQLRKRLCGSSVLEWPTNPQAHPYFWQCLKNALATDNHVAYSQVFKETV
# Assay comment: Human TLR7 Reporter Assay
# Conditions used: HEK-Blue hTLR7 cells, 16 hours, normalized to CL097 (6 μM) and DMSO
Experimental endpoint: EC50 (nM)

Answered cases to consult:
{"Compound": "CCCCNc1nc(N)nc2cn(Cc3c(OC)cc(CN4CCN(C(=O)C5CCC(CN6C(=O)C=CC6=O)CC5)CC4)cc3OC)nc12 (centres unmarked)", "Assay system": "hTLR7 (Homo sapiens, UniProt Q9NYK1)", "EC50 / nM": 3330}
{"Compound": "COc1cccc(OC)c1Cn1cc2nc(N)nc(NCCC(C)O)c2n1 (centres unmarked) [Compound 51]", "Assay system": "hTLR7 (Homo sapiens, UniProt Q9NYK1)", "EC50 / nM": 4730}
{"Compound": "CCCCNc1nc(N)nc2cn(Cc3ccc(N4CC5(CNC5)C4)cc3OC)nc12", "Assay system": "hTLR7 (Homo sapiens, UniProt Q9NYK1)", "EC50 / nM": 988}

(I) CCCCNc1nc(N)nc2cn(Cc3nocc3C)nc12
(II) COc1cccc(OC)c1Cn1cc2nc(N)nc(NCCCC(C)C)c2n1
(III) CCCCNc1nc(N)nc2cn(Cc3cc(CN4CC(CN)C4)ccc3OC)nc12
(IV) CCCCNc1nc(N)nc2cn(Cc3ccc(CCN)cc3OC)nc12
In: In this exercise, place the 4 compounds in ascending sequence of their recorded EC50. Form field (ranking): labels in requested order.
Out: I, II, IV, III
